This collection of values is drawn from paper PMC8022280.

Target chain: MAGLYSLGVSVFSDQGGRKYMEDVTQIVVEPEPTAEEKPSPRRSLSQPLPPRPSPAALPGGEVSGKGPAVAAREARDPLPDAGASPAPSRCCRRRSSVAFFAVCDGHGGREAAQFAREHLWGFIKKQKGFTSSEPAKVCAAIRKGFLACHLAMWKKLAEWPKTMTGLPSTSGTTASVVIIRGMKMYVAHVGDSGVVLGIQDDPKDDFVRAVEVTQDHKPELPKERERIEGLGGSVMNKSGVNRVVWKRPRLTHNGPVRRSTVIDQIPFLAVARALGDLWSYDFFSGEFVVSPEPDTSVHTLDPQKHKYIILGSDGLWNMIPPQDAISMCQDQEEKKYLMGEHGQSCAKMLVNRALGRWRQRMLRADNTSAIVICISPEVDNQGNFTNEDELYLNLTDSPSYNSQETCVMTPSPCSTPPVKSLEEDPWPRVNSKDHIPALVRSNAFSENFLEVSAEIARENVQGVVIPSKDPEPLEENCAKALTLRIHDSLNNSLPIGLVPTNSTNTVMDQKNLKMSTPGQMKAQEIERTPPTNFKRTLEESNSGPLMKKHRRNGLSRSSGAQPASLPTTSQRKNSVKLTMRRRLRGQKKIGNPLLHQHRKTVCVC
metric: pIC50
Lab note: report pIC50 as minus log10 of the concentration in molar units, number only.

Lab note: COC(=O)[C@H](CCCCNC(=O)[C@H](CC1CCCCC1)NC(=O)c1cccs1)NC(=O)c1cccc(O)c1 gave pIC50 of 6.04
